These measurements were taken from PubChem BioAssay (NCI).

The molecules listed here are annotated with their GI50.
# Test system: SK-MEL-28 melanoma
# protocol_text: NCI tumour cell line growth inhibition, 48 h

Observe how each entry below is paired with its result.
*Q* GI50 of CCc1nc(-n2c(-c3ccccc3)nc3ccccc3c2=O)nc(N)c1-c1ccc(Cl)cc1 on SK-MEL-28 melanoma?
*A* > 100 µM

*Q* Give the reported GI50 for COc1c(N2CCN(Cn3c(O)c(N=NC(=O)c4ccncc4)c4cc(F)ccc43)C(C)C2)c(F)cc2c(=O)c(C(=O)O)cn(C3CC3)c12 (centres undefined) (system: SK-MEL-28 melanoma).
*A* > 50 µM

*Q* Query for SK-MEL-28 melanoma: what GI50 does the record show for O=c1c2c3c(sc2n2c(-c4ccc(Br)cc4)nnc2n1Cc1ccccc1)CCCC3 ?
*A* 6.19 µM

*Q* Give recorded GI50 with SK-MEL-28 melanoma for the following molecule: Cc1ccc2c(c1)C(=O)c1c-2n(CCCN=[N+]=[N-])c(=O)c2cc([N+](=O)[O-])ccc12
*A* > 100 µM

*Q* Quick check: GI50 on SK-MEL-28 melanoma, item CCOC(=S)SCN1C(=O)c2ccccc2S1(=O)=O ?
*A* 3.42 µM

*Q* For the record CCCCOc1ccc(/C=N/Nc2cc(C)nc3ccc(Cl)cc23)cc1 , what value of GI50 is listed for SK-MEL-28 melanoma?
*A* 1.66 µM

Others:
*Q* Report GI50 for COc1cc(-c2nn(-c3ccc(NC(=O)c4cc(Cl)cc(Cl)c4)cc3)cc2-c2ccncc2)ccc1Cl tested on SK-MEL-28 melanoma.
*A* > 100 µM

*Q* Return GI50 measured with SK-MEL-28 melanoma given this molecule: COc1ccc(NC(=O)/C=C(C)/C=C/C=C(C)\C=C\C2=C(C)CCCC2(C)C)cc1
*A* > 100 µM

*Q* Lookup: GI50 / SK-MEL-28 melanoma / C=CCCC(=O)N1C=CC(=O)[C@H](O)[C@@H]1/C=C/c1ccccc1
*A* 17.4 µM

====

# Tested on: HCT-15 colon
# protocol_text: NCI tumour cell line growth inhibition, 48 h
Reported TGI values follow for various compounds

Would you please look over these solved cases?
*Q* # lookup: TGI of COc1ccc(/C=N/N=C(\[O-])c2ccncc2)cc1F.COc1ccc(/C=N\N=C(/[O-])c2ccncc2)cc1F.[Cu+2]
*A* > 100 µM

*Q* Please give the measured TGI for this compound: COc1ccccc1NCC(=O)Nn1c(C)nc2ccc(S(=O)(=O)Nc3ccccc3OC)cc2c1=O
*A* > 100 µM

*Q* # get_value(readout='TGI', item= C=CCC(CNC(=O)OCc1ccccc1)OC(=O)OCc1ccccc1 (stereo not given) )
*A* > 100 µM

---
*Q* Data request, read-out TGI, for CN(C)CCNc1nc(-c2cccs2)cc(-c2cccs2)n1
*A* 33.2 µM

*Q* # input compound: O=S(=O)(/N=C(\NO)Nc1ccc(Cl)cc1)c1ccc(-c2ccccn2)s1 ; wanted: its TGI
*A* > 100 µM

*Q* Can you share its TGI? I mean this compound: CN1CCN(CCOc2ccc(-c3cnc4c(-c5ccc(F)cc5)cnn4c3)cc2)CC1
*A* 2.75 µM

*Q* Query: TGI; subject: Cc1cc(S(=O)(=O)Nc2nc3cc(Cl)ccc3o2)c(SCc2ccccc2)cc1Cl
*A* 25 µM

*Q* I have this compound here, O=C(O)CC(O)(C(=O)O)C(O)C(=O)O (stereo not given) , and I need its recorded TGI.
*A* > 1000 µM

*Q* What value of measured TGI is listed for Cc1ccc2c(c1)C(=O)c1c-2n(CCCN=[N+]=[N-])c(=O)c2cc([N+](=O)[O-])ccc12 ?
*A* > 100 µM

*Q* I have this compound here, O=C(Nc1cccc(C(F)(F)F)c1)c1cc(Br)cc(Br)c1O , and I need its recorded TGI.
*A* > 10 µM
